# Tested on: Enterobacterales
# Procedure Text: MIC, broth microdilution, CDC/FDA Antibiotic Resistance Isolate Bank (Example 7, Tables 8, 11, 12)
# Assay type: cell-based
# Assay Context: Klebsiella pneumoniae, KUB No. 5649, AR Bank # 152; read-out: MIC
Reported Endpoint: MIC (µg/mL)
State the answer as a number, implicitly in µg/mL.

// solved cases for MIC follow
1) CC(C)(O/N=C(\C(=O)N[C@@H]1C(=O)N2C(C(=O)[O-])=C(C[N+]3(CCNC(=O)c4ccc(O)c(O)c4Cl)CCCC3)CS[C@H]12)c1csc(N)n1)C(=O)O 0.25
2) NCC[C@H](O)C(=O)N[C@@H]1C[C@H](N)[C@@H](O[C@H]2O[C@H](CN)[C@@H](O)[C@H](O)[C@H]2O)[C@H](O)[C@H]1O[C@H]1O[C@H](CO)[C@@H](O)[C@H](N)[C@H]1O 32

Could you now look at the following compound, please?
Briefly, MIC measured for `C[C@H]1COc2c(N3CCN(C)CC3)c(F)cc3c(=O)c(C(=O)O)cn1c23` : 32

----------
// reported log10(MIC) per item
# Tested on: P. aeruginosa
# Procedure Text: MIC, broth microdilution, CDC/FDA Antibiotic Resistance Isolate Bank (Example 7, Tables 10, 15)
# Assay type: cell-based
# Assay Context: Pseudomonas aeruginosa, P. aeruginosa KUB No. 5703, AR Bank # 270; read-out: MIC
On a log10 scale: recorded MIC, unit µg/mL.

Example entries and their recorded answers appear below.
Compound	log10(MIC)
C[C@H]1[C@H](NC(=O)/C(=N\OC(C)(C)C(=O)O)c2csc(N)n2)C(=O)N1S(=O)(=O)O [Aztreonam, aztreonam]	0.30
C[C@H]1COc2c(N3CCN(C)CC3)c(F)cc3c(=O)c(C(=O)O)cn1c23 [Levofloxacin, levofloxacin]	1.51
CO/N=C(\C(=O)N[C@@H]1C(=O)N2C(C(=O)[O-])=C(C[n+]3ccn4ncccc43)CS[C@H]12)c1nsc(N)n1 [Cefozopran, cefozopran]	0.60
CN(C)c1cc(NC(=O)CNC(C)(C)C)c(O)c2c1C[C@H]1C[C@H]3[C@H](N(C)C)C(O)=C(C(N)=O)C(=O)[C@@]3(O)C(O)=C1C2=O [Tigecycline, tigecycline]	0.90
CC(C)(O/N=C(\C(=O)N[C@@H]1C(=O)N2C(C(=O)[O-])=C(C[N+]3(CCNC(=O)c4ccc(O)c(O)c4Cl)CCCC3)CS[C@H]12)c1csc(N)n1)C(=O)O [Cefiderocol, cefiderocol]	-0.60

Memo: NCC[C@H](O)C(=O)N[C@@H]1C[C@H](N)[C@@H](O[C@H]2O[C@H](CN)[C@@H](O)[C@H](O)[C@H]2O)[C@H](O)[C@H]1O[C@H]1O[C@H](CO)[C@@H](O)[C@H](N)[C@H]1O [Amikacin, amikacin] , reported log10(MIC): 1.20

----------
# System: 53 CRE and CPE strains
# Procedure Text: MICrange, MIC50, MIC80, MIC90 for 53 bacterial isolates (Example 5, Table 5)
# Format: cell-based
# Assay Context: 53 bacterial isolates; read-out: MIC80
Reported Endpoint: MIC80 (µg/mL)
Entry rule: numbers only, all in µg/mL.

Check out these entries, answers already filled in.
Compound	Unit Spec	MIC80
NCC[C@H](O)C(=O)N[C@@H]1C[C@H](N)[C@@H](O[C@H]2O[C@H](CN)[C@@H](O)[C@H](O)[C@H]2O)[C@H](O)[C@H]1O[C@H]1O[C@H](CO)[C@@H](O)[C@H](N)[C@H]1O [Amikacin, amikacin]	µg/mL	32
C[C@@H](O)[C@H]1C(=O)N2C(C(=O)O)=C(SCCN=CN)C[C@H]12 [Imipenem, imipenem]	µg/mL	32

Here's the next entry for you.
Notebook: CC(C)(O/N=C(\C(=O)N[C@@H]1C(=O)N2C(C(=O)[O-])=C(C[N+]3(CCNC(=O)c4ccc(O)c(O)c4Cl)CCCC3)CS[C@H]12)c1csc(N)n1)C(=O)O [Cefiderocol, cefiderocol] , MIC80 read as 2

----------
Entries annotated with measured MIC
# Tested on: Enterobacterales
# Procedure Text: MIC, broth microdilution, CDC/FDA Antibiotic Resistance Isolate Bank (Example 7, Tables 8, 11, 12)
# Format: cell-based
# Assay Context: Klebsiella pneumoniae, KUB No. 5617, AR Bank # 120; read-out: MIC
A number alone suffices; assume µg/mL.

1) CC(C)(O/N=C(\C(=O)N[C@@H]1C(=O)N2C(C(=O)[O-])=C(C[N+]3(CCNC(=O)c4ccc(O)c(O)c4Cl)CCCC3)CS[C@H]12)c1csc(N)n1)C(=O)O 0.25
2) CO/N=C(\C(=O)N[C@@H]1C(=O)N2C(C(=O)[O-])=C(C[n+]3ccn4ncccc43)CS[C@H]12)c1nsc(N)n1 32
3) C[C@H]1COc2c(N3CCN(C)CC3)c(F)cc3c(=O)c(C(=O)O)cn1c23 64

`NCC[C@H](O)C(=O)N[C@@H]1C[C@H](N)[C@@H](O[C@H]2O[C@H](CN)[C@@H](O)[C@H](O)[C@H]2O)[C@H](O)[C@H]1O[C@H]1O[C@H](CO)[C@@H](O)[C@H](N)[C@H]1O` has a reported MIC of 32

----------
Reported values of Ki for individual entries
# Tgt: KPC-2 (Klebsiella pneumoniae, UniProt Q9F663)
# Sequence (Q9F663 25-293 limits assumed): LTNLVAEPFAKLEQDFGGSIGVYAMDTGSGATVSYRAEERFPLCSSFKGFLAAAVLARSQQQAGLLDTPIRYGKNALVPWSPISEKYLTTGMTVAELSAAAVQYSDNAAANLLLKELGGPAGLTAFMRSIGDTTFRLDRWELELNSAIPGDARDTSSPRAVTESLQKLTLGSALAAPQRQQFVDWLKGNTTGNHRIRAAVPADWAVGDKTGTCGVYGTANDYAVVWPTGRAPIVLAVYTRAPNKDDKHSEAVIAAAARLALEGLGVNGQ
# Procedure Text: Ki,app against β-lactamase (Example 1, Table 1)
# Type: biochemical

Compound	Tgt	Reported Endpoint	Measurement
CC1(C)[C@H](C(=O)O)N2C(=O)C[C@H]2S1(=O)=O	KPC-2 (Klebsiella pneumoniae, UniProt Q9F663)	Ki	420 nM

The compound identified as O=C(O)[C@H]1/C(=C/CO)O[C@@H]2CC(=O)N21 [Clavulanate, clavulanate] registered its Ki at 76.7 nM

----------
# System: Enterobacterales
# Procedure Text: MIC, broth microdilution, CDC/FDA Antibiotic Resistance Isolate Bank (Example 7, Tables 8, 11, 12)
# Type: cell-based
# Assay Context: Escherichia coli, KUB No. 5581, AR Bank # 84; read-out: MIC
Reported Endpoint: MIC (µg/mL)
Answer with a number only, understood to be in µg/mL.

1. CC(C)(O/N=C(\C(=O)N[C@@H]1C(=O)N2C(C(=O)[O-])=C(C[N+]3(CCNC(=O)c4ccc(O)c(O)c4Cl)CCCC3)CS[C@H]12)c1csc(N)n1)C(=O)O 0.5
2. C[C@H]1[C@H](NC(=O)/C(=N\OC(C)(C)C(=O)O)c2csc(N)n2)C(=O)N1S(=O)(=O)O 0.5
3. NCC[C@H](O)C(=O)N[C@@H]1C[C@H](N)[C@@H](O[C@H]2O[C@H](CN)[C@@H](O)[C@H](O)[C@H]2O)[C@H](O)[C@H]1O[C@H]1O[C@H](CO)[C@@H](O)[C@H](N)[C@H]1O 0.5

Attention now shifts to the item below.
Per the reported Enterobacterales data, `CO/N=C(\C(=O)N[C@@H]1C(=O)N2C(C(=O)[O-])=C(C[n+]3ccn4ncccc43)CS[C@H]12)c1nsc(N)n1` has MIC of 0.25

----------
This listing pairs molecules with measured MIC.
# Tested on: P. aeruginosa
# Procedure Text: MIC, broth microdilution, CDC/FDA Antibiotic Resistance Isolate Bank (Example 7, Tables 10, 15)
# Assay type: cell-based
# Assay Context: Pseudomonas aeruginosa, P. aeruginosa KUB No. 5692, AR Bank # 259; read-out: MIC
# number only, unit µg/mL dropped from output

See these solved cases before continuing.
Molecule	Measurement
CN(C)c1cc(NC(=O)CNC(C)(C)C)c(O)c2c1C[C@H]1C[C@H]3[C@H](N(C)C)C(O)=C(C(N)=O)C(=O)[C@@]3(O)C(O)=C1C2=O [Tigecycline, tigecycline]	4
CO/N=C(\C(=O)N[C@@H]1C(=O)N2C(C(=O)[O-])=C(C[n+]3ccn4ncccc43)CS[C@H]12)c1nsc(N)n1 [Cefozopran, cefozopran]	1
C[C@H]1COc2c(N3CCN(C)CC3)c(F)cc3c(=O)c(C(=O)O)cn1c23 [Levofloxacin, levofloxacin]	0.5
CC(C)(O/N=C(\C(=O)N[C@@H]1C(=O)N2C(C(=O)[O-])=C(C[N+]3(CCNC(=O)c4ccc(O)c(O)c4Cl)CCCC3)CS[C@H]12)c1csc(N)n1)C(=O)O [Cefiderocol, cefiderocol]	0.12
NCC[C@H](O)C(=O)N[C@@H]1C[C@H](N)[C@@H](O[C@H]2O[C@H](CN)[C@@H](O)[C@H](O)[C@H]2O)[C@H](O)[C@H]1O[C@H]1O[C@H](CO)[C@@H](O)[C@H](N)[C@H]1O [Amikacin, amikacin]	2

Record C[C@H]1[C@H](NC(=O)/C(=N\OC(C)(C)C(=O)O)c2csc(N)n2)C(=O)N1S(=O)(=O)O [Aztreonam, aztreonam] , field MIC: 4

----------
# Tested on: Enterobacterales
# Procedure Text: MIC, broth microdilution, CDC/FDA Antibiotic Resistance Isolate Bank (Example 7, Tables 8, 11, 12)
# Assay type: cell-based
# Assay Context: Escherichia coli, KUB No. 5616, AR Bank # 119; read-out: MIC
Reported Endpoint: MIC (µg/mL)
Your answer should be a plain number; it is taken to be in µg/mL.

Compound	Tgt	Measurement
C[C@H]1COc2c(N3CCN(C)CC3)c(F)cc3c(=O)c(C(=O)O)cn1c23 [Levofloxacin, levofloxacin]	Enterobacterales	32

# MIC (compound: CC(C)(O/N=C(\C(=O)N[C@@H]1C(=O)N2C(C(=O)[O-])=C(C[N+]3(CCNC(=O)c4ccc(O)c(O)c4Cl)CCCC3)CS[C@H]12)c1csc(N)n1)C(=O)O [Cefiderocol, cefiderocol] ) is 0.5
